Quick list: Binding to 1 nM Flk-1, % per entry.
target: T1, mouse vascular endothelial growth factor receptor-2 Fc chimera (Flk-1-Fc) (mouse, UniProt P35918 20-762); assay: radioactive equilibrium binding assay, 1 nM Flk-1-Fc, % of input bound
T1 construct: Bought from R&D Systems; also called mouse VEGFR-2; not shown: Fc part of the purchased chimera, not specified
T1 sequence (P35918 20-762, change not shown): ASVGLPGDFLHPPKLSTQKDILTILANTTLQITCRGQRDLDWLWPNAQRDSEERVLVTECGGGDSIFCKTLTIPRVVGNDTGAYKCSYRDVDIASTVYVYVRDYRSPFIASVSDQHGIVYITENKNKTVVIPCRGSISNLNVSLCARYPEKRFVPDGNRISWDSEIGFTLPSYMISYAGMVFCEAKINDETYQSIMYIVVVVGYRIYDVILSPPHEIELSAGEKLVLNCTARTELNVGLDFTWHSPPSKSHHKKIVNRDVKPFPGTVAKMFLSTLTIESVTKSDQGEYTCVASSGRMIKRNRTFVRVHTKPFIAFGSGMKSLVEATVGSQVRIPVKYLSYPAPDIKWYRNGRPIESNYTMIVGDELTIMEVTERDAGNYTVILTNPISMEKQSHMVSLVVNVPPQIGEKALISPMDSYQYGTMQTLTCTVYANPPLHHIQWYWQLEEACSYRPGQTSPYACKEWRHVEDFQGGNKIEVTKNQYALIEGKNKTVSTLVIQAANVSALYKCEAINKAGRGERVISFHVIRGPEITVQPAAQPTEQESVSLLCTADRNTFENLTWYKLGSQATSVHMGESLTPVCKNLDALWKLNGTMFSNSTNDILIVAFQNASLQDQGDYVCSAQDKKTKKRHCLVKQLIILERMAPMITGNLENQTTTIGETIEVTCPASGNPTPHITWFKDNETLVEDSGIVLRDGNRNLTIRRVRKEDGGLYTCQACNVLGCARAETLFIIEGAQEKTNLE
Observable: Binding to 1 nM Flk-1, % (%)

>>> reported_value("B6 (designed binder, 10Fn3 clone, Del 1-8) EVVAATPTSLLISWRHPHFPTRYYRITYGETGGNSPVQEFTVPLQPPTATISGLKPGVDYTITGYAVTLERNGKELMTPISINYRT")
11
>>> reported_value("F8 (designed binder, 10Fn3 clone, Del 1-8) EVVAATPTSLLISWRHPHFPTRYYRITYGETGGNSPVQEFTVPLQPPTATISGLKPGVDYTITGYAVTVEHNGRTSFTPISINYRT")
13
>>> reported_value("B3 (designed binder, 10Fn3 clone, Del 1-8) EVVAATPTSLLISWRHPHFPTRYYRITYGETGGNSPVQEFTVPLQPPTATISGLKPGVDYTITGYAVTMERNGRELMTPISINYRT")
27
>>> reported_value("FE (designed binder) EVVAATPTSLLISWRHPHFPTRYYRITYGETGGNSPVQEFTVPLQPPTATISGLKPGVDYTITGYAVTVERDGRELNIPISINYRT")
8
>>> reported_value("E3 (designed binder, 10Fn3 clone, Del 1-8) EVVAATPTSLLISWRHPHFPTRYYRITYGETGGNSPVQEFTVPLQPPTATISGLKPGVDYTITGYAVTDGRNDRKLMVPISINYRT")
14

Reference for the values: patent US20140179896A1
